The origin of these recorded values is ChEMBL document CHEMBL5665443.

# tested.system: UniProt:P29372
# Sequence (P29372 whole entry): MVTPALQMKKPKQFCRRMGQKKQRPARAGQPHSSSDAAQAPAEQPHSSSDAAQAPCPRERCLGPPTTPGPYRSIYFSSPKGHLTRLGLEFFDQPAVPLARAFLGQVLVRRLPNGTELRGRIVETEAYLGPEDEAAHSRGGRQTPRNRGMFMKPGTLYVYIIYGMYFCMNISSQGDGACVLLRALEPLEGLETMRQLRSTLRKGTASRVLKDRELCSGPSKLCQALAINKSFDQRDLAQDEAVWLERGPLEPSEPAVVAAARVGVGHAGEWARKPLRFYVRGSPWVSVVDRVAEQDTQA
# particulars: Compound Concentration 10.0 uM, Hit No
# Description: Inhibition of MPG by quantifying inhibition of MPG-mediated cleavage and dissociation of quenched duplex DNA oligonucleotides, measured as fluorescence at 594 nm. To generate a functional strand incision and increase turn-over this assay is coupled to APE1.
observable: inhibition
State the value, then name its unit.

Answered cases to consult:
COc1ccncc1C(=O)NC(=O)Nc1ccc(-c2ccccc2)c(C(F)(F)F)c1; -3.95%
N[C@@]1(C(=O)O)CC[C@H]2[C@H](C(=O)O)[C@H]21; -1.43%
NCCc1ccc(O)c(O)c1; -0.746%

Shift focus to the following entry.
State, in one line, measured inhibition of `N#Cc1c(Oc2cccc(OS(=O)(=O)CCCC(F)(F)F)c2)cccc1C(F)(F)F` 8.15%

* * *

# tested.system: Adenine DNA glycosylase (Homo sapiens) (UniProt Q9UIF7);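 note: human MUTYH activity read as 594 nm fluorescence from cleavage and release of a quenched DNA duplex, coupled with APE1 for strand incision, lower signal meaning inhibition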
# Sequence (Q9UIF7 whole entry): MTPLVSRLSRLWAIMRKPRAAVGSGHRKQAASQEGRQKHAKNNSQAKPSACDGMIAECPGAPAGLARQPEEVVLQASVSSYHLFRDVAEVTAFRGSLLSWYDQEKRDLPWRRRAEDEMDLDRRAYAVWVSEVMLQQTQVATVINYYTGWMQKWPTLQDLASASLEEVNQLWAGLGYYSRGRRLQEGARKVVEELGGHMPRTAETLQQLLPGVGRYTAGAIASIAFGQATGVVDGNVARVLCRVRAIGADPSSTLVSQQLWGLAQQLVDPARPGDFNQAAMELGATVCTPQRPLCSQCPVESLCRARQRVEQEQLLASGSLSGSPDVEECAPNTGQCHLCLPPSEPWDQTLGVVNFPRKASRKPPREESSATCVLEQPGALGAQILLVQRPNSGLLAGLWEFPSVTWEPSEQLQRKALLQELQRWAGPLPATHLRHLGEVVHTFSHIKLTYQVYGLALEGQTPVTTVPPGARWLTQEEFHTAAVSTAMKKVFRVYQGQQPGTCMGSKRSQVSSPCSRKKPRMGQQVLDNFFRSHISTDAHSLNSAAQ
# particulars: Compound Concentration 1.0 uM, Hit No
# Description: Inhibition of MUTYH by quantifying inhibition of MUTYH-mediated cleavage and dissociation of quenched duplex DNA oligonucleotides, measured as fluorescence at 594 nm. To generate a functional strand incision and increase turn-over this assay is coupled to APE1.
A collection of molecules and their measured inhibition
The response must be a number in % with no trailing unit.

Answered cases to consult:
CCN(CC)CCCCNc1ncc2cc(-c3cc(OC)cc(OC)c3)c(NC(=O)NC(C)(C)C)nc2n1; 14.1
CCS(=O)(=O)c1cc2cc(C[C@@](O)(CC(C)(C)c3ccc(F)cc3C(N)=O)C(F)(F)F)[nH]c2cn1; -2.67
CCOC(=O)c1c(/C(C#N)=C\N)c2ccc(Cl)c(Cl)c2n1C; -2.85
CN(C)CC#Cc1ccc2[nH]c3c(c2c1)-c1nc(N)ncc1CCC3; 1.71
N#Cc1cnc(Nc2cc(NC[C@H]3CNCCO3)c(C(F)(F)F)cn2)cn1; 2.62

Lab note: Adenine DNA glycosylase (Homo sapiens) (UniProt Q9UIF7) assay, enter inhibition for `O=C(NCc1ncc(C(F)(F)F)cc1Cl)c1ccc2c(c1)C1(CCS(=O)(=O)CC1)[C@H](C1CC1)N2S(=O)(=O)c1ccc(F)cc1` here 2.13

Lab note: Adenine DNA glycosylase (Homo sapiens) (UniProt Q9UIF7) assay, enter inhibition for `CC(C)CC(=O)N1CCc2nc(-c3ccc(Br)cc3)nc(N(C)Cc3ccccc3)c2C1` here -1.09

Lab note: Adenine DNA glycosylase (Homo sapiens) (UniProt Q9UIF7) assay, enter inhibition for `CNC(=O)Nc1ccc2c(c1)CC[C@@]21OC(=O)N(CC(=O)N(Cc2ccc(F)cc2)[C@@H](C)C(F)(F)F)C1=O` here 0.168

Lab note: Adenine DNA glycosylase (Homo sapiens) (UniProt Q9UIF7) assay, enter inhibition for `NC(=O)c1ccc2nc(-c3ccc(C4(N)CCC4)cc3)c(-c3ccccc3)n2n1` here 26.6
